Cited source: the supplement of paper PMC10126150

Consider the following sequences and their measured switch fluorescence ratio readings.
Test system: ATP;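 further: ATP exposure 15 min at 22 °C before imaging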
method-summary: switch fluorescence ratio, 500 uM ATP over buffer (Cy3 cluster intensity, sum of 5 cycles each) (fold (ratio)); higher = stronger signal-on switching upon ATP binding; sequences stand for … in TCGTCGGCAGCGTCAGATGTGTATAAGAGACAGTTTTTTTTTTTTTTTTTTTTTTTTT…TC
condition-description: aptamer strand: ATP DNA aptamer (quencher-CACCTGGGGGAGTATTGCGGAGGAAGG + anchor), 100 nM annealed; ATP concentration: 500 uM
Form field (numeric): enter value without unit.

# count of solved cases: 10
- record-sequence: "TGAGCTTAGA"
  switch fluorescence ratio: 1.02
- record-sequence: "GGCTTTACCT"
  switch fluorescence ratio: 1.1
- record-sequence: "TGCCGGGGGC"
  switch fluorescence ratio: 1.04
- record-sequence: "ACTCGGACCG"
  switch fluorescence ratio: 1.04
- record-sequence: "AGTTTGGTTC"
  switch fluorescence ratio: 0.988
- record-sequence: "ACTCTGTTTT"
  switch fluorescence ratio: 1.01
- record-sequence: "ATGCACTCGA"
  switch fluorescence ratio: 1.03
- record-sequence: "TGTTGAAGGT"
  switch fluorescence ratio: 1.02
- record-sequence: "GGAATGTTGC"
  switch fluorescence ratio: 0.973
- record-sequence: "TATGTGGGAT"
  switch fluorescence ratio: 0.973

In: Using the record for TATGCATGGA , state its measured switch fluorescence ratio.
Out: 1.01

In: Note down switch fluorescence ratio recorded for GAACCTAGAG
Out: 0.98

In: Identify switch fluorescence ratio associated with the sequence GCAAAGTGGG
Out: 0.991

In: Give recorded switch fluorescence ratio. TAGATAGAAT
Out: 1

In: Identify measured switch fluorescence ratio corresponding to TTGTTCGATT
Out: 1

In: Look up and state reported switch fluorescence ratio for ATATCTCGAG
Out: 0.981

In: In one line, give reported switch fluorescence ratio of the entry TCGGGTTGAC .
Out: 1.02
